B1: LINE1-full (parent)
chain: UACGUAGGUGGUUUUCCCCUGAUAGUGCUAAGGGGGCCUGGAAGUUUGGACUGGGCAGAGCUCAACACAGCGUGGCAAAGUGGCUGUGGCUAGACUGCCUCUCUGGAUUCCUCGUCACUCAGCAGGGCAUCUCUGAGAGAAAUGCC

Variants of: B1
measurement-description: self-cleavage, relative activity (ratio to wild type); higher = more cleavage; in vitro, sequencing; the parent is a self-cleaving ribozyme
assay-endpoint: self-cleavage
Reply: number alone, nothing else.

Q: Query: self-cleavage; subject: UACGUAGGUGGUUUUCCCCUGAUAGUGCUAAGGGGGCCUGGAAGUUUGGAUCGGGCAGAGCUCAACACAGCGUGGCAAAGUGGCUGUGGCUAGACUGCCUCUCUGGAUUCCUCGUCACUCAGCAGGGCAUCUCUGAGAGAAAUGCC
A: 0.99

Q: Would you mind telling me what self-cleavage value was observed for UACGUAGGUGGUUUUCCCCUGAUAGUGCUAAGGGGGCCUGGAUGUUUGGACUGGGCAGAGCUCAACACAGCGUGGCAAAGUGGCUGUGGCUAGACUGCCUCUCUGGACUCCUCGUCACUCAGCAGGGCAUCUCUGAGAGAAAUGCC ?
A: 1.08

Q: So what's the measured self-cleavage for this one? UACAUAGGCGGUUUUCCCCUGAUAGUGCUAAGGGGGCCUGGAAGUUUGGACUGGGCAGAGCUCAACACAGCGUGGCAAAGUGGCUGUGGCUAGACUGCCUCUCUGGAUUCCUCGUCACUCAGCAGGGCAUCUCUGAGAGAAAUGCC
A: 0.69

Q: What measured self-cleavage goes with UACGUAGGUGGUAUUCCCAUGAUAGUGCUAAGGGGGCCUGGAAGUUUGGACUGGGCAGAGCUCAACACAGCGUGGCAAAGUGGCUGUGGCUAGACUGCCUCUCUGGAUUCCUCGUCACUCAGCAGGGCAUCUCUGAGAGAAAUGCC ?
A: 1.84

Q: // query self-cleavage value for entry UACGUAGGUGGUUUUCCCCUGAUAGUGCUAAGGUGGCCUGGAAGUUUGGUCUGGGCAGAGCUCAACACAGCGUGGCAAAGUGGCUGUGGCUAGACUGCCUCUCUGGAUUCCUCGUCACUCAGCAGGGCAUCUCUGAGAGAAAUGCC
A: 0.39

Further cases:
Q: Give its self-cleavage value. Item: UACGUAGGUAGUUUUCCCCUGAUAGUGCUAAGGGGGCCUGGAAGUUCGGACUGGGCAGAGCUCAACACAGCGUGGCAAAGUGGCUGUGGCUAGACUGCCUCUCUGGAUUCCUCGUCACUCAGCAGGGCAUCUCUGAGAGAAAUGCC
A: 1.37

Q: Entry under review: UACGUAGGUGGUUUUCCCCUGAUAGUGCUAAGGGGGCCUGGAAGUCUGGACUGGGCAGAGCUCAACACAGCGUGGCAAAGUGGCUGUGGCUAGACUGCCUCUCUGGAUUCCUCGACACUCAGCAGGGCAUCUCUGAGAGAAAUGCC . Reported self-cleavage?
A: 1.58

Q: Returns the measured self-cleavage for the input variant. Input: UACGUAGGUGGUUUUCCCCUGAUAGUGCUAAGGGGGCCUGGAAGUCUGGACUGGGCAGAGCUCAACACAGCGUGGCAAAGUGGCUGUGGCUAGACUGCCUCUCUGGAUUCCUCGUCACUCAGCAGAGCAUCUCUGAGAGAAAUGCC
A: 0.59

Q: For UACGUAGGUGGUUUUCCCCUGAUAGUGCUAAGGGGGCCUGGAAGUUUGGACUGGGCAGAGCUCAACACAGCGUGGCAAAGUGGCUGUGGCUAGUCUGCCUCUCUGGAUUCCUCGUCACUCAGCAGGGCAUUUCUGAGAGAAAUGCC , what is its reported self-cleavage?
A: 0.29
